Would you mind telling me the reported SI value (Stimulation Index) of each entry?
# assayOverview: skin sensitization test (LLNA, Local Lymph Node Assay, OECD test guideline 429), Stimulation Index
# Format: in vivo
# conditionSummary: SI less than 3 judged negative
Give bare numbers.

1) C=C(C)C(=O)OCC(C)(C)COC(=O)C(=C)C [Example A1, Neopentyl glycol dimethacrylate] = 2.0
2) C=CC(=O)OCCCCCCCCCCCCCCCC(C)C [Example A19, Isostearyl acrylate] = 1.4

For every record below, what is its SI value (Stimulation Index)?
1. C=C(C)C(=O)OCC(CC)(COC(=O)C(=C)C)COC(=O)C(=C)C [Example A5, Trimethylolpropane trimethacrylate]
2. C=C(C)C(=O)OCCCCCCCCCCCCCCCCCC [Example A21, Stearyl methacrylate]
3. C=CC(=O)OCCCCCCCCCCCCCCCCCC [Example A12, Stearyl acrylate]
4. C=C(C)C(=O)OCCCCOC(=O)C(=C)C [Example A13, 1,4-Butanediol dimethacrylate]

1. 1.9
2. 1.2
3. 2.7
4. 2.6
